All figures here come from paper PMC12416549.

Recorded apparent Kd (screen) by entry
- assay.target: T1, TNFR1 (Homo sapiens, UniProt P19438)
- T1 chain: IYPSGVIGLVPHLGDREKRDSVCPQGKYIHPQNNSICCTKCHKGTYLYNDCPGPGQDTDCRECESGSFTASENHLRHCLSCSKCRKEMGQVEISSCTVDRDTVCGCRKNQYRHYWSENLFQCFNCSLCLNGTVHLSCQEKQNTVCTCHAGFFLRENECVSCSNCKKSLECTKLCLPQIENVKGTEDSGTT
- procedure.summary: yeast display SC50

| binder | observed.measurement |
| --- | --- |
| Y70E (designed binder) SMEEEVEKAAKEYEKKKKEAIEKHLEKLKAKDKEAAERFLKELEEAAKEYAKDEAKTMSEEEAKRRAKKEKEKVLLSELSEEEQKEIKEAEEKLVRTILKYVEEAAK | 0.718 nM |

Could you now look at the following binder, please?
# binder E82Y (designed binder) SMEEEVEKAAKEYEKKKKEAIEKHLEKLKAKDKEAAERFLKELEEAAKEYAKDEAKTMSEEEAKRRAKKYKEKVLLSELSEYEQKEIKEAEEKLVRTILKYVEEAAK ; its apparent Kd (screen) = 0.653 nM
